Data provenance: patent US20210246157A1

# Tested on: HT-29
# assay_explanation: Cytotoxicity test (MTT, 72 h)
# conditions: Homo sapiens, HT-29, 72 h, read-out: 50% Inhibiting Concentration value (IC50)
Where a name gives a salt, the structure may show the parent alone.
test_readout: IC50 (µM)

CCc1c2c(nc3ccc(OC(=O)OCCOCCOCCOCc4cn(CCO[C@H]5O[C@@H](CO)[C@H](O)[C@@H](O)[C@@H]5O)nn4)cc13)-c1cc3c(c(=O)n1C2)COC(=O)[C@]3(O)CC [Compound 58] :: 5.25
CCc1c2c(nc3ccc(OC(=O)OCCOCc4cn([C@H]5O[C@@H](CO)[C@H](O)[C@@H](O)[C@@H]5O)nn4)cc13)-c1cc3c(c(=O)n1C2)COC(=O)[C@]3(O)CC [Compound 37] :: 1.94
CCc1c2c(nc3ccc(OC(=O)NCCOCc4cn(CCO[C@H]5O[C@@H](CO)[C@H](O)[C@@H](O)[C@@H]5O)nn4)cc13)-c1cc3c(c(=O)n1C2)COC(=O)[C@]3(O)CC [Compound 67] :: 5.19
CCc1c2c(nc3ccc(OC(=O)NCCCOCc4cn(CCO[C@H]5O[C@@H](CO)[C@H](O)[C@@H](O)[C@@H]5O)nn4)cc13)-c1cc3c(c(=O)n1C2)COC(=O)[C@]3(O)CC [Compound 81] :: 9.42
CCc1c2c(nc3ccc(OC(=O)OCCOCCOCCOCCOCc4cn(CCO[C@H]5O[C@@H](CO)[C@H](O)[C@@H](O)[C@@H]5O)nn4)cc13)-c1cc3c(c(=O)n1C2)COC(=O)[C@]3(O)CC [Compound 59] :: 1.13
CCc1c2c(nc3ccc(OC(=O)OCCOCCOCc4cn(CCO[C@H]5O[C@@H](CO)[C@H](O)[C@@H](O)[C@@H]5O)nn4)cc13)-c1cc3c(c(=O)n1C2)COC(=O)[C@]3(O)CC [Compound 57] :: 1.68
CCc1c2c(nc3ccc(OC(=O)NCCCCCOCc4cn([C@H]5O[C@@H](CO)[C@H](O)[C@@H](O)[C@@H]5O)nn4)cc13)-c1cc3c(c(=O)n1C2)COC(=O)[C@]3(O)CC [Compound 87] :: 7.36
CCc1c2c(nc3ccc(OC(=O)OCCOCc4cn(CCO[C@H]5O[C@@H](CO)[C@H](O)[C@@H](O)[C@@H]5O)nn4)cc13)-c1cc3c(c(=O)n1C2)COC(=O)[C@]3(O)CC [Compound 56] :: 9.39
CCc1c2c(nc3ccc(OC(=O)NCCCCCOCc4cn(CCO[C@H]5O[C@@H](CO)[C@H](O)[C@@H](O)[C@@H]5O)nn4)cc13)-c1cc3c(c(=O)n1C2)COC(=O)[C@]3(O)CC [Compound 88] :: 9.1
CCc1c2c(nc3ccc(OC(=O)NCCOCCOCc4cn([C@H]5O[C@@H](CO)[C@H](O)[C@@H](O)[C@@H]5O)nn4)cc13)-c1cc3c(c(=O)n1C2)COC(=O)[C@]3(O)CC [Compound 73] :: 3.16
CCc1c2c(nc3ccc(OC(=O)OCCOCCOCc4cn([C@H]5O[C@@H](CO)[C@H](O)[C@@H](O)[C@@H]5O)nn4)cc13)-c1cc3c(c(=O)n1C2)COC(=O)[C@]3(O)CC [Compound 47] :: 0.694
CCc1c2c(nc3ccc(OC(=O)N4CCC(N5CCCCC5)CC4)cc13)-c1cc3c(c(=O)n1C2)COC(=O)[C@]3(O)CC [CPT-11, Irinotecan hydrochloride, reference compound] :: 12.8
CCc1c2c(nc3ccc(OC(=O)NCCOCCOCc4cn(CCO[C@H]5O[C@@H](CO)[C@H](O)[C@@H](O)[C@@H]5O)nn4)cc13)-c1cc3c(c(=O)n1C2)COC(=O)C3(O)CC (some centres unmarked) [Compound 74] :: 7.96
CCc1c2c(nc3ccc(OC(=O)NCCCOCc4cn([C@H]5O[C@@H](CO)[C@H](O)[C@@H](O)[C@@H]5O)nn4)cc13)-c1cc3c(c(=O)n1C2)COC(=O)[C@]3(O)CC [Compound 80] :: 6.94
CCc1c2c(nc3ccc(OC(=O)NCCOCc4cn([C@H]5O[C@@H](CO)[C@H](O)[C@@H](O)[C@@H]5O)nn4)cc13)-c1cc3c(c(=O)n1C2)COC(=O)[C@]3(O)CC [Compound 66] :: 5.11
CCc1c2c(nc3ccc(OC(=O)OCCOCCOCCOCCOCc4cn([C@H]5O[C@@H](CO)[C@H](O)[C@@H](O)[C@@H]5O)nn4)cc13)-c1cc3c(c(=O)n1C2)COC(=O)[C@]3(O)CC [Compound 42] :: 13.5
CCc1c2c(nc3ccc(OC(=O)OCCOCCOCCOCc4cn([C@H]5O[C@@H](CO)[C@H](O)[C@@H](O)[C@@H]5O)nn4)cc13)-c1cc3c(c(=O)n1C2)COC(=O)[C@]3(O)CC [Compound 52] :: 0.859
